# fold repression values compiled below
Target: T1, ECF17_1691
T1 chain: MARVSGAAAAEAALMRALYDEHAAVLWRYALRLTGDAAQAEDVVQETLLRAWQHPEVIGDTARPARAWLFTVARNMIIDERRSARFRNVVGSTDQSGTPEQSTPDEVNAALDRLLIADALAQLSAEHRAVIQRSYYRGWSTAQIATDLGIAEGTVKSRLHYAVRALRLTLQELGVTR

# BINDER, fold repression
data = [
    ("AS11_987 (protein) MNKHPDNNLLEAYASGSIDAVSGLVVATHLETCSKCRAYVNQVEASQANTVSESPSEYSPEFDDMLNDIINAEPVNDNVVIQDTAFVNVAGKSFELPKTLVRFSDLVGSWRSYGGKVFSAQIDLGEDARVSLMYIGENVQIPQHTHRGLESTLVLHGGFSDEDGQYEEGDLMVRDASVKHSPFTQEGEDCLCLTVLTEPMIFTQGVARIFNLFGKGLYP", 2.68),
    ("AS30_35 (protein) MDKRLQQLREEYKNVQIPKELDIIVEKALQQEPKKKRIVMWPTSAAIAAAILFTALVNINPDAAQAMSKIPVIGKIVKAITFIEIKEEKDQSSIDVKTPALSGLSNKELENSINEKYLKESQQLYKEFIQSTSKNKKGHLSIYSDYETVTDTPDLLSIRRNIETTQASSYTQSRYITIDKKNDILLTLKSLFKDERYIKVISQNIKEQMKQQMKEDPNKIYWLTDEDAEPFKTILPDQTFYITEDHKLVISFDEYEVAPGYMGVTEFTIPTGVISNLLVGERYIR", 1.6),
    ("AS02_915 (protein) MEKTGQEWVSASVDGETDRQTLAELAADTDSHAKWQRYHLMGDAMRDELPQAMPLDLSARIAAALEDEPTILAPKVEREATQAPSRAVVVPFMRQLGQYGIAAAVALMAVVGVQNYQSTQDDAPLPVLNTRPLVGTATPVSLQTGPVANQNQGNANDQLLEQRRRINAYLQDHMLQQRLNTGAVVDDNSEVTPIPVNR", 2.73),
]
